pKd: recorded values
# target: T1, human CD80-murine Ig fusion protein (human)
# T1 construct: Bought (Ancell #510-820); also called hCD80-mIg; human CD80-murine IgG
# T1 chain: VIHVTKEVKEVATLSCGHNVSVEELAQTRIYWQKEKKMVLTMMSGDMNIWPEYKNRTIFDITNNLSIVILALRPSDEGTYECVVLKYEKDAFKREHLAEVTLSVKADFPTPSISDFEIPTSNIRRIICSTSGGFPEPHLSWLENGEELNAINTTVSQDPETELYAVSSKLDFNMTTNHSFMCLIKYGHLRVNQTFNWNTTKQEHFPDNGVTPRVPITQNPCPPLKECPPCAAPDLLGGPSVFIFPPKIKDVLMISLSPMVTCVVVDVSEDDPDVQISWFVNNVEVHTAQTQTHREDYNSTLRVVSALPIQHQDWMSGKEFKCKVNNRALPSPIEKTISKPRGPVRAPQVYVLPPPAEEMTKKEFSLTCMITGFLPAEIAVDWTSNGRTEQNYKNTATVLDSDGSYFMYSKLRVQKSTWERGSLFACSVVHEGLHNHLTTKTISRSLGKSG
# experiment: SPR Biacore, hCD80-mIg captured
pKd: −log10 of the molar value.

D3-56-IgG2 (Fc fusion) MHVAQPAVVLASSRGIASFVCEYASPGKANEVRVTVLRQADSQVTEVCAMTYMKENELTFLDDPSCTGTFSGNQVNLTIQGLRAMDTGLYICKVELMYPPPYYLGIGNGTQIYVIDPEPCPDSDERKCCVECPPCPAPPVAGPSVFLFPPKPKDTLMISRTPEVTCVVVDVSHEDPEVQFNWYVDGVEVHNAKTKPREEQFNSTFRVVSVLTVVHQDWLNGKEYKCKVSNKGLPAPIEKTISKTKGQPREPQVYTLPPSREEMTKNQVSLTCLVKGFYPSDIAVEWESNGQPENNYKTTPPMLDSDGSFFLYSKLTVDKSRWQQGNVFSCSVMHEALHNHYTQKSLSLSPG = 8.76 to 9.36
D3-31-IgG2 (Fc fusion) MHVAQPAVVLASSRGIASFVCEYESPGKANEIRVTVLRQADSQVTEVCAMTYMKEDELTFLDDPSCTGTFSGNQVNLTIQGLRAADTGLYICKVELMYPPPYYLGIGNGTQIYVIDPEPCPDSDERKCCVECPPCPAPPVAGPSVFLFPPKPKDTLMISRTPEVTCVVVDVSHEDPEVQFNWYVDGVEVHNAKTKPREEQFNSTFRVVSVLTVVHQDWLNGKEYKCKVSNKGLPAPIEKTISKTKGQPREPQVYTLPPSREEMTKNQVSLTCLVKGFYPSDIAVEWESNGQPENNYKTTPPMLDSDGSFFLYSKLTVDKSRWQQGNVFSCSVMHEALHNHYTQKSLSLSPG = > 9.36
D1T-IgG2 (Fc fusion) MHVAQPAVVLASSRGIASFVCEYESPHKANEIRVTVLRQANSQVTEVCAMTYMKGDELTFLDDPFCTGTFSGNQVNLTIQGLRAADTGLYICKVELMYPPPYYLGIGNGTQIYVIDPEPCPDSDERKCCVECPPCPAPPVAGPSVFLFPPKPKDTLMISRTPEVTCVVVDVSHEDPEVQFNWYVDGVEVHNAKTKPREEQFNSTFRVVSVLTVVHQDWLNGKEYKCKVSNKGLPAPIEKTISKTKGQPREPQVYTLPPSREEMTKNQVSLTCLVKGFYPSDIAVEWESNGQPENNYKTTPPMLDSDGSFFLYSKLTVDKSRWQQGNVFSCSVMHEALHNHYTQKSLSLSPG = > 9.36

What measured pKd goes with D3-21-IgG2 (Fc fusion) MHVAQPAVVLASSRGIASFVCEYESPGKANEIRVTVLRQADSQVTEVCAMTYMKGNELTFLDDPSCTGTFSGNQVNLTIQGLRAMDTGLYICKVELMYPPPYYLGFGNGTQIYVIDPEPCPDSDERKCCVECPPCPAPPVAGPSVFLFPPKPKDTLMISRTPEVTCVVVDVSHEDPEVQFNWYVDGVEVHNAKTKPREEQFNSTFRVVSVLTVVHQDWLNGKEYKCKVSNKGLPAPIEKTISKTKGQPREPQVYTLPPSREEMTKNQVSLTCLVKGFYPSDIAVEWESNGQPENNYKTTPPMLDSDGSFFLYSKLTVDKSRWQQGNVFSCSVMHEALHNHYTQKSLSLSPG ?
8.76 to 9.36

Next: D3-30-IgG2 (Fc fusion) MHVAQPAVVLASSRGIASFVCEYESPGKANEIRVTVLRQADSQVTEVCAMTYMKGDELTFLDDPICTGTFSGNQVNLTIQGLRAMDTGLYICKVELMYPPPYYLGIGNGTQIYVIDPEPCPDSDERKCCVECPPCPAPPVAGPSVFLFPPKPKDTLMISRTPEVTCVVVDVSHEDPEVQFNWYVDGVEVHNAKTKPREEQFNSTFRVVSVLTVVHQDWLNGKEYKCKVSNKGLPAPIEKTISKTKGQPREPQVYTLPPSREEMTKNQVSLTCLVKGFYPSDIAVEWESNGQPENNYKTTPPMLDSDGSFFLYSKLTVDKSRWQQGNVFSCSVMHEALHNHYTQKSLSLSPG
8.76 to 9.36

Next: D3-20-IgG2 (Fc fusion) MHVAQPAVVLASSRGIASFVCEYESPGKANEIRVTVLRQADSQVTEVCAMTYMKGNELTFLDDPSCTGTFSGNQVNLTIQGLRAMDTGLYICKVELMYPPPYYLGIGNGTQIYVIDPEPCPDSDERKCCVECPPCPAPPVAGPSVFLFPPKPKDTLMISRTPEVTCVVVDVSHEDPEVQFNWYVDGVEVHNAKTKPREEQFNSTFRVVSVLTVVHQDWLNGKEYKCKVSNKGLPAPIEKTISKTKGQPREPQVYTLPPSREEMTKNQVSLTCLVKGFYPSDIAVEWESNGQPENNYKTTPPMLDSDGSFFLYSKLTVDKSRWQQGNVFSCSVMHEALHNHYTQKSLSLSPG
8.76 to 9.36

Next: D3-34-IgG2 (Fc fusion) MHVAQPAVVLASSRGIASFVCEYASPGKANEVRVTVLRQADSQVTEVCAMTYMKGNELTFLDDPSCTGTFSGNQVNLTIQGLRAMDTGLYICKVELMYPPPYYLGIGNGTQIYVIDPEPCPDSDERKCCVECPPCPAPPVAGPSVFLFPPKPKDTLMISRTPEVTCVVVDVSHEDPEVQFNWYVDGVEVHNAKTKPREEQFNSTFRVVSVLTVVHQDWLNGKEYKCKVSNKGLPAPIEKTISKTKGQPREPQVYTLPPSREEMTKNQVSLTCLVKGFYPSDIAVEWESNGQPENNYKTTPPMLDSDGSFFLYSKLTVDKSRWQQGNVFSCSVMHEALHNHYTQKSLSLSPG
8.76 to 9.36
